Origin of the recorded values: ChEMBL document CHEMBL1201862

Measured IC50, listed per entry.
# measured-on: Induced myeloid leukemia cell differentiation protein Mcl-1 (Homo sapiens, UniProt Q07820)
# Sequence (Q07820 whole entry): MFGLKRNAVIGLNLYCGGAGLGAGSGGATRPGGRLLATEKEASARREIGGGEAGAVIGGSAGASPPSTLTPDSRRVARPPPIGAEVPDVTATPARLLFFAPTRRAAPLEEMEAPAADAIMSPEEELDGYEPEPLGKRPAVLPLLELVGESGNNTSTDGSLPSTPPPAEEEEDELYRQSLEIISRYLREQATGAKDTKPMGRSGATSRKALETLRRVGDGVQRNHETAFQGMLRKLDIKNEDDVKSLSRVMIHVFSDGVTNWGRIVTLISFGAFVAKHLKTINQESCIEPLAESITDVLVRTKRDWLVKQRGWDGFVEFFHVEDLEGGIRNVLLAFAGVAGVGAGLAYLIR
# Format: functional
Active and inactive are the calls of the source.

Recorded results for 4 compounds are shown here.
>  <compound>
Cc1c(Cc2ccccc2)c(=O)oc2c(O)c(O)ccc12

>  <IC50>
11700 nM (not active)

$$$$
>  <compound>
COc1ccc(O)c(N)c1

>  <IC50>
1530 nM (active)

$$$$
>  <compound>
Cc1ccc2c(c1Cl)NC(C(=O)O)C1CC(Sc3ccccc3[N+](=O)[O-])C(Cl)C21 (configuration not stated)

>  <IC50>
2960 nM (active)

$$$$
>  <compound>
O=C(CSc1nc2ccccc2s1)Nc1cc(S(=O)(=O)N2CCOCC2)ccc1O

>  <IC50>
1750 nM (active)

$$$$

[in] What does the record list as IC50 for O=C1NN(c2ccccc2)C(=O)/C1=C\c1ccc(-c2cc([N+](=O)[O-])ccc2O)o1 ?
[out] 10700 nM (active)

[in] What does the record list as IC50 for COc1ccc(CCNC(=O)CN(c2ccc(OC)c(OC)c2)S(C)(=O)=O)cc1 ?
[out] 26000 nM (not active)

[in] What does the record list as IC50 for CC(C)(C)c1cc(-c2csc(Nc3ccccc3)[n+]2Cc2ccc(C(=O)O)cc2)cc(C(C)(C)C)c1O ?
[out] 2010 nM (active)

* * *

# measured-on: Apoptotic protease-activating factor 1 (Homo sapiens)
# Sequence (O14727 whole entry): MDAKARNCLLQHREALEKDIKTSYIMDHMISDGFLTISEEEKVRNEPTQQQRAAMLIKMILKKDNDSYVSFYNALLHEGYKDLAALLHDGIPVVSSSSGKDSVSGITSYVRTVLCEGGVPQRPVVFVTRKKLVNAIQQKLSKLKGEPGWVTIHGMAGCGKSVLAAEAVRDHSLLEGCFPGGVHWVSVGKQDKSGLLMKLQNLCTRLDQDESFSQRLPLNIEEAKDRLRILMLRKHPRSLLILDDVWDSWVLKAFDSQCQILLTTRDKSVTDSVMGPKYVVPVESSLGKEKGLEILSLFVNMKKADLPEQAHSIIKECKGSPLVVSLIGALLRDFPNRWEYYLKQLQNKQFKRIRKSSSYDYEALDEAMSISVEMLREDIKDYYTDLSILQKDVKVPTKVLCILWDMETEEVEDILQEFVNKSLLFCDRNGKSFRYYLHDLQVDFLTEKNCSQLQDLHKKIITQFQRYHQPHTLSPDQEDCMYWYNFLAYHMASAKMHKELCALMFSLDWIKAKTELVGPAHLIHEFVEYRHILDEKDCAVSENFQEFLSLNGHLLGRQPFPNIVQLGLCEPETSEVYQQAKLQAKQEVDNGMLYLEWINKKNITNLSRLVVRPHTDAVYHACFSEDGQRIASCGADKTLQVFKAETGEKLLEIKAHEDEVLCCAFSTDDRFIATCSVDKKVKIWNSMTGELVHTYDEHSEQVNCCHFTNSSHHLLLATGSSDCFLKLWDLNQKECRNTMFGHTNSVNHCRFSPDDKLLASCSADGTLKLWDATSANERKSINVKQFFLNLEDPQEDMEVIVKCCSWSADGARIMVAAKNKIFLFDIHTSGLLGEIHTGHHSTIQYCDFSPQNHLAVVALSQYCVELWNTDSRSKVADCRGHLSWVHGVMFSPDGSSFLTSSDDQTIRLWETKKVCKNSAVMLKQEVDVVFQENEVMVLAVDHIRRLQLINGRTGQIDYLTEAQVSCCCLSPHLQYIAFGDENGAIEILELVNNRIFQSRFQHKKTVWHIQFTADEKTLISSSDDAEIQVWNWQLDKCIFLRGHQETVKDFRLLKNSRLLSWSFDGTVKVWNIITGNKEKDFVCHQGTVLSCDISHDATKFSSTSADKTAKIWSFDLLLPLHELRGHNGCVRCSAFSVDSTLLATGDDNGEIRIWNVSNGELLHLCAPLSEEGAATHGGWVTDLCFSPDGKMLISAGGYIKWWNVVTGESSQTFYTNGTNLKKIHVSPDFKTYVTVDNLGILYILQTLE
# Type: functional
Calls of active or inactive are those of the source.
measured-attribute: IC50

[in] What does the record list as IC50 for COc1ccc(/C=N/Nc2cc(N(C)C)nc(N(C)C)n2)cc1 ?
[out] 2.36 µM (active)

* * *

# measured-on: Glucose-6-phosphate 1-dehydrogenase (Homo sapiens)
# Sequence (P11413 whole entry): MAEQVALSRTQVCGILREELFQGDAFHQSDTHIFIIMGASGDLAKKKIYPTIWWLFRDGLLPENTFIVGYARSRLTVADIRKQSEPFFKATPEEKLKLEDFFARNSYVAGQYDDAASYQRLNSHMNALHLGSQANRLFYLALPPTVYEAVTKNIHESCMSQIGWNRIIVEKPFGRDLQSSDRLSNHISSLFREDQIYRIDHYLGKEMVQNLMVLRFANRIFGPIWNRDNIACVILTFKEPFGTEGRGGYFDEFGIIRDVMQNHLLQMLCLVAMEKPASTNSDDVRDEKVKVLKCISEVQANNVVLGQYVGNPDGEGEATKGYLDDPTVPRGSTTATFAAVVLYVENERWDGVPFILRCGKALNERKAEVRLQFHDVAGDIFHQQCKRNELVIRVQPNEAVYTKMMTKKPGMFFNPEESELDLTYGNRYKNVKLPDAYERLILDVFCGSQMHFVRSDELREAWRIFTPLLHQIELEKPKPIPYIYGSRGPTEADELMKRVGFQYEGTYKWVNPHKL
# method-notes: human G6PD enzyme inhibitors, dose response, selectivity assay for P. falciparum G6PD inhibitor project, biochemical, fluorescence (AID 504792)
# Assay type: functional
Activity calls are given as the source filed them.
Could you please pick one outcome from this set? YES for active, NO for inactive

[in] I would be grateful if you could indicate the recorded call for O=C(CNC(=O)c1cccs1)OCC(=O)c1ccc([N+](=O)[O-])cc1 .
[out] NO

[in] I would be grateful if you could indicate the recorded call for S=C(NN=Cc1ccccn1)N(Cc1ccccn1)Cc1ccccn1 .
[out] NO

[in] I would be grateful if you could indicate the recorded call for O=C(CCc1ccc(S(=O)(=O)N2CCOCC2)cc1)N/N=C/c1ccc(O)c(O)c1O .
[out] NO

[in] I would be grateful if you could indicate the recorded call for CC(NC(=O)c1sc2cc([N+](=O)[O-])ccc2c1Cl)C(C)(C)C (centres undefined) .
[out] NO

[in] I would be grateful if you could indicate the recorded call for CN(C)S(=O)(=O)c1cccc(-n2sc3ccccc3c2=O)c1 .
[out] YES

[in] I would be grateful if you could indicate the recorded call for COc1cc(-c2cc(=O)c3c(O)c(OC)c(OC)c(O)c3o2)ccc1O .
[out] NO

[in] I would be grateful if you could indicate the recorded call for CC(CNc1ccccc1O)C(=O)O (centres undefined) .
[out] NO

[in] I would be grateful if you could indicate the recorded call for Oc1cc2c(cc1O)[C@H]1c3ccc(O)c(O)c3OC[C@@]1(O)C2 .
[out] NO

[in] I would be grateful if you could indicate the recorded call for O=[N+]([O-])c1cnc(Sc2ccncn2)c([N+](=O)[O-])c1 .
[out] NO

* * *

# measured-on: Carboxy-terminal domain RNA polymerase II polypeptide A small phosphatase 1 (Homo sapiens, UniProt Q9GZU7)
# Sequence (Q9GZU7 whole entry): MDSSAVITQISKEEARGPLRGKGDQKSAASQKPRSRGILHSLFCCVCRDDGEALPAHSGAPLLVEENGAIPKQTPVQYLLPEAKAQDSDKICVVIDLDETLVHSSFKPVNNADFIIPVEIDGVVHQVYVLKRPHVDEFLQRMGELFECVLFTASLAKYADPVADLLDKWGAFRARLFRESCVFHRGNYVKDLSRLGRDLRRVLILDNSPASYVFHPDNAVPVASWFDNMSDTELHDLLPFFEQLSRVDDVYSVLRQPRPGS
# method-notes: inhibitors of CTDSP1, concentration-response testing, biochemical assay, absorbance-based, actives from ultra-high-throughput screening (AID 540297)
# Type: functional
Active and inactive are the calls of the source.
Measured IC50, listed per entry.

>  <compound>
Cc1c(CC(=O)O)c(=O)oc2c(C)c3occ(-c4ccc(Br)cc4)c3cc12

>  <IC50>
7.37 µM (active)

$$$$
>  <compound>
COc1ccc(C2=NN(C(=O)CCCC(=O)O)C(c3cn(-c4ccccc4)nc3-c3ccccc3)C2)cc1 (stereo not given)

>  <IC50>
3.91 µM (active)

$$$$
>  <compound>
CCOC(=O)c1c(NC(=O)COC(=O)c2ccc(NC(=O)CC#N)cc2)sc(C(=O)NC)c1C

>  <IC50>
3.43 µM (active)

$$$$
>  <compound>
C=CCOc1ccc(/C=C\c2nc(O)c([N+](=O)[O-])c(O)n2)cc1OC

>  <IC50>
13.7 µM (active)

$$$$
>  <compound>
COc1ccc2cc3c(N)nn(C(=O)c4ccc(Cl)c([N+](=O)[O-])c4)c3nc2c1

>  <IC50>
1.72 µM (active)

$$$$

[in] What does the record list as IC50 for CC1CCN(S(=O)(=O)c2ccc(NC(=O)Cc3cccs3)cc2)CC1 ?
[out] 3.87 µM (active)

[in] What does the record list as IC50 for C[n+]1ccc(C(=O)Nc2ccccc2Cl)cc1 ?
[out] 7.68 µM (active)

[in] What does the record list as IC50 for O=C(Cc1ccccc1)N/N=C/c1ccc(OCC(=O)Nc2ccccc2)cc1 ?
[out] 10.2 µM (active)

[in] What does the record list as IC50 for O=C(Nc1cc(S(=O)(=O)N2CCCCC2)ccc1Cl)C1COc2ccccc2O1 (stereo not given) ?
[out] 46.4 µM (active)

[in] What does the record list as IC50 for Cc1cc(C(=O)COc2ccc3ccc(=O)oc3c2)c(C)n1Cc1cccs1 ?
[out] 6.2 µM (active)

* * *

# measured-on: Ubiquitin-conjugating enzyme E2 N (Homo sapiens)
# Sequence (P61088 whole entry): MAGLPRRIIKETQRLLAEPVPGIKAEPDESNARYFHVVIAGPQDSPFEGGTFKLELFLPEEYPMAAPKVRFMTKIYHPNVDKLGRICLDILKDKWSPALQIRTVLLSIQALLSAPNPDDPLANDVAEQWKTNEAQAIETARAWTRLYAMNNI
# Type: functional
Calls of active or inactive are those of the source.
Could you please pick one outcome from this set? active, inactive

Study these solved cases before continuing.
>  <compound>
Cc1ncc(CO)c(/C=N/NC(=S)Nc2ccc(Cl)c(Cl)c2)c1O

>  <measured-on>
Ubiquitin-conjugating enzyme E2 N (Homo sapiens)

>  <label-class>
inactive

$$$$
>  <compound>
Cc1ccccc1CN1CCC(CNC(=O)C2CCCN(c3ncnc4c3nc3n4CCCCC3)C2)CC1 (configuration not stated)

>  <measured-on>
Ubiquitin-conjugating enzyme E2 N (Homo sapiens)

>  <label-class>
inactive

$$$$
>  <compound>
CCCCCc1cc(=O)oc2c(C(CCN3CCCC3)c3cc(OC)c(OC)c(OC)c3)c(OC)cc(OC)c12 (configuration not stated)

>  <measured-on>
Ubiquitin-conjugating enzyme E2 N (Homo sapiens);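 further: Dose-response confirmation in a TR-FRET assay detecting UBC13-driven polyubiquitin chain formation, inhibition measured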

>  <label-class>
inactive

$$$$

[in] I would be grateful if you could indicate the recorded call for CCOc1cc(/C=C/C(=O)Nc2ccc(C(=O)NCCN(CC)CC)cc2)ccc1OCC(C)C .
[out] inactive

[in] I would be grateful if you could indicate the recorded call for CCOc1ccccc1NC(=O)C(OC(=O)c1ccc(O)cc1)c1ccccc1 (configuration not stated) .
[out] active

* * *

Cytochrome P450 3A4 (Homo sapiens, UniProt P08684) AC50 data;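 further: CYP3A4 tested as one member of a cytochrome P450 panel screen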
Sequence (P08684 whole entry): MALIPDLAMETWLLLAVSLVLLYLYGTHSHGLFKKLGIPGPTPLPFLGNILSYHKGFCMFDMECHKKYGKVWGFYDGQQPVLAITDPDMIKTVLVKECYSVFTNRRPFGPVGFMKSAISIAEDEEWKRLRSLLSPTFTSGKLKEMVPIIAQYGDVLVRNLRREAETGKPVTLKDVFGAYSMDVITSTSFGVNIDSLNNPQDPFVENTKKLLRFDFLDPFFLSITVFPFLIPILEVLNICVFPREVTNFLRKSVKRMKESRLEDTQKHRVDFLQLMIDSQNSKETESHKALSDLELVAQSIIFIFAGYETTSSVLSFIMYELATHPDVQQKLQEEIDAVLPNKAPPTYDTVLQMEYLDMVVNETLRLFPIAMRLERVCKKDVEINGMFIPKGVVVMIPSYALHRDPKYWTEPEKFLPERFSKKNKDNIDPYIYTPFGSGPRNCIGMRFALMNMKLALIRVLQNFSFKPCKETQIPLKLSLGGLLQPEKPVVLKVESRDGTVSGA

Recorded results for 8 compounds are shown here.
>  <compound>
O=C(O)c1c(Cl)c(Cl)c(Cl)c(Cl)c1C(=O)Nc1ccc2cn[nH]c2c1

>  <AC50>
3.98 µM (inconclusive)

$$$$
>  <compound>
COc1ccc(Oc2ncc3nc(-c4ccc(OC)cc4)c(=O)n(C)c3n2)cc1

>  <AC50>
3.98 µM (inconclusive)

$$$$
>  <compound>
COC(=O)CCC(=O)Nc1cccc(C(=O)Nc2cccc(Cl)c2)c1

>  <AC50>
0.398 µM (inconclusive)

$$$$
>  <compound>
O=C(NCC1CCCO1)c1ccc2c(=O)n(Cc3ccco3)c(SCC(=O)N3CCCC3)nc2c1 (centres undefined)

>  <AC50>
12.6 µM (inconclusive)

$$$$
>  <compound>
COc1ccc(Nc2nc(N)nc(CSc3n[nH]c(-c4ccccc4)n3)n2)cc1

>  <AC50>
3.98 µM (inconclusive)

$$$$
>  <compound>
CCCNC(=O)OC[C@@H]1O[C@H](CCO/N=C\c2ccc(C(=O)N3[C@H](c4ccc(C)cc4)[C@@H](C)CC[C@H]3C(=O)OC)cc2)C=C[C@@H]1Oc1ccc(OC)cc1

>  <AC50>
3.16 µM (inconclusive)

$$$$
>  <compound>
Cc1nc2ccccc2c(=O)n1NC(=O)c1ccccc1Cl

>  <AC50>
22.4 µM (inconclusive)

$$$$
>  <compound>
CCOc1c2ccc(C(=O)NCc3ccco3)cc2nn1CCOC

>  <AC50>
22.4 µM (inconclusive)

$$$$

[in] For the record O=c1c(-c2ccccc2)nc2cnc(N3CCNCC3)nc2n1-c1ccccc1 , what value of AC50 is listed for Cytochrome P450 3A4 (Homo sapiens, UniProt P08684)?
[out] 20 µM (inconclusive)
